ECL signal/blank ratio (read-out not given) reference
Measured Target: T1, Recombinant Human DLL4 (R&D Systems Cat#1506-D4/CF) (human, UniProt Q9NR61 27-524)
T1 construct: Bought recombinant protein; also called delta-like protein 4; rHuman DLL4
Test Description: ECL multispot (MSD) assay, antigen spotted on plate, 20 nM Fab;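 further: purified Fab bound to plate-spotted antigen for 1 h at 20 °C, labelled detection antibody added, ratio of antigen ECL signal to same-well blank, ratio ≥4 counted as binder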
Parameter: ECL signal/blank ratio (read-out not given)

binder="Fab VH3-23_IGHD2-21*01>3_IGHJ6*01 H100E/S108P/Y113G D62A & V2-13_IGLJ2*01 (Fab, V domains shown, Tested as a Fab made in E. coli; also called EPG D62A) VH: EVQLLESGGGLVQPGGSLRLSCAASGFTFSSYAMSWVRQAPGKGLEWVSSISGSGGSTYYAASVKGRFTISRDNSKNTLYLQMNSLRAEDTAVYYCAKEEIVVVIAIPYYYYGYGMDVWGQGTLVTVSS VL: SSELTQDPAVSVALGQTVRITCQGDSLRSYYASWYQQKPGQAPVLVIYGKNNRPSGIPDRFSGSSSGNTASLTITGAQAEDEADYYCNSRDSSGNHLVVFGGGTKLTVL" observed_result=2.4
binder="Fab VH3-23_IGHD2-21*01>3_IGHJ6*01 H100E/S108P/Y113G Y60A & V2-13_IGLJ2*01 (Fab, V domains shown, Tested as a Fab made in E. coli; also called EPG Y60A) VH: EVQLLESGGGLVQPGGSLRLSCAASGFTFSSYAMSWVRQAPGKGLEWVSSISGSGGSTYAADSVKGRFTISRDNSKNTLYLQMNSLRAEDTAVYYCAKEEIVVVIAIPYYYYGYGMDVWGQGTLVTVSS VL: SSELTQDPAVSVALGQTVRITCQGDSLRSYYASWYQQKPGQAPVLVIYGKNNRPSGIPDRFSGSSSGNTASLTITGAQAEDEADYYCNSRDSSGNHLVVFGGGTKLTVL" observed_result=2.3
binder="Fab VH3-23_IGHD2-21*01>3_IGHJ6*01 H100E/S108P/Y113G A61T & V2-13_IGLJ2*01 (Fab, V domains shown, Tested as a Fab made in E. coli; also called EPG A61T) VH: EVQLLESGGGLVQPGGSLRLSCAASGFTFSSYAMSWVRQAPGKGLEWVSSISGSGGSTYYTDSVKGRFTISRDNSKNTLYLQMNSLRAEDTAVYYCAKEEIVVVIAIPYYYYGYGMDVWGQGTLVTVSS VL: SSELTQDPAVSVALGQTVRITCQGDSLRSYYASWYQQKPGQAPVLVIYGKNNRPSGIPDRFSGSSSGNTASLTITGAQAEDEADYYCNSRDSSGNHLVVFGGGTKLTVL" observed_result=2.6
binder="Fab VH3-23_IGHD2-21*01>3_IGHJ6*01 H100E/S108P/Y113G Y59A & V2-13_IGLJ2*01 (Fab, V domains shown, Tested as a Fab made in E. coli; also called EPG Y59A) VH: EVQLLESGGGLVQPGGSLRLSCAASGFTFSSYAMSWVRQAPGKGLEWVSSISGSGGSTAYADSVKGRFTISRDNSKNTLYLQMNSLRAEDTAVYYCAKEEIVVVIAIPYYYYGYGMDVWGQGTLVTVSS VL: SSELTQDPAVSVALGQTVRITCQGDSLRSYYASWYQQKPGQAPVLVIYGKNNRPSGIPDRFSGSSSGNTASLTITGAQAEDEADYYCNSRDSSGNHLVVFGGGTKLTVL" observed_result=2.8
